Experiment: Solubility of empagliflozin in supercritical carbon dioxide (isobaric-isothermal method, UV-Vis at 276 nm)
Format: physicochemical
Conditions: supercritical carbon dioxide (ScCO2), thermodynamic from solid, 328 K, 18 MPa, ScCO2 density 725 kg/m^3; read-out: S (equilibrium solubility) in ScCO2
Excerpt: The detailed discussion of the solubility apparatus and equilibrium cell has been presented in our earlier studies (Fig. 2)[19],[25],[40],[41]. However, a brief description about the apparatus is presented in this section. […] Further, the above quantities are given as:2 nsolute=Cs·Vs/Ms 3 nCO2=V1·ρ/MCO2 where Cs is the drug concentration in saturated sample vial in g/L. The volume of the sampling loop and vial collection are V1(L) = 600 × 10^–6 m^3 and Vs(L) = 5 × 10^–3 m^3, respectively. […]

- compound: "OC[C@H]1O[C@@H](c2ccc(Cl)c(Cc3ccc(O[C@H]4CCOC4)cc3)c2)[C@H](O)[C@@H](O)[C@@H]1O [empagliflozin]"
  solubility thermodynamic at 60 min (µg/mL): 120

---

test: Solubility of empagliflozin in supercritical carbon dioxide (isobaric-isothermal method, UV-Vis at 276 nm); type: physicochemical; settings: supercritical carbon dioxide (ScCO2), thermodynamic from solid, 318 K, 24 MPa, ScCO2 density 851 kg/m^3; read-out: S (equilibrium solubility) in ScCO2

- compound: "OC[C@H]1O[C@@H](c2ccc(Cl)c(Cc3ccc(O[C@H]4CCOC4)cc3)c2)[C@H](O)[C@@H](O)[C@@H]1O [empagliflozin]"
  solubility thermodynamic at 60 min: "181 µg/mL"

---

assay: Solubility of empagliflozin in supercritical carbon dioxide (isobaric-isothermal method, UV-Vis at 276 nm); format: physicochemical; details: supercritical carbon dioxide (ScCO2), thermodynamic from solid, 328 K, 24 MPa, ScCO2 density 802 kg/m^3; read-out: S (equilibrium solubility) in ScCO2

- molecule_smiles: "OC[C@H]1O[C@@H](c2ccc(Cl)c(Cc3ccc(O[C@H]4CCOC4)cc3)c2)[C@H](O)[C@@H](O)[C@@H]1O"
  solubility thermodynamic at 60 min, µg/mL: 185

---

assay: Solubility of empagliflozin in supercritical carbon dioxide (isobaric-isothermal method, UV-Vis at 276 nm); type: physicochemical; details: supercritical carbon dioxide (ScCO2), thermodynamic from solid, 308 K, 21 MPa, ScCO2 density 875 kg/m^3; read-out: S (equilibrium solubility) in ScCO2
readout_name: solubility thermodynamic at 60 min (µg/mL)

- molecule_smiles: "OC[C@H]1O[C@@H](c2ccc(Cl)c(Cc3ccc(O[C@H]4CCOC4)cc3)c2)[C@H](O)[C@@H](O)[C@@H]1O"
  readout_number: 126

---

assay: Solubility of empagliflozin in supercritical carbon dioxide (isobaric-isothermal method, UV-Vis at 276 nm); format: physicochemical; conditions: supercritical carbon dioxide (ScCO2), thermodynamic from solid, 318 K, 21 MPa, ScCO2 density 824 kg/m^3; read-out: S (equilibrium solubility) in ScCO2

- compound: "OC[C@H]1O[C@@H](c2ccc(Cl)c(Cc3ccc(O[C@H]4CCOC4)cc3)c2)[C@H](O)[C@@H](O)[C@@H]1O [empagliflozin]"
  solubility thermodynamic at 60 min (µg/mL): 135

---

assay: Solubility of empagliflozin in supercritical carbon dioxide (isobaric-isothermal method, UV-Vis at 276 nm); format: physicochemical; conditions: supercritical carbon dioxide (ScCO2), thermodynamic from solid, 328 K, 27 MPa, ScCO2 density 829 kg/m^3; read-out: S (equilibrium solubility) in ScCO2

- molecule_smiles: "OC[C@H]1O[C@@H](c2ccc(Cl)c(Cc3ccc(O[C@H]4CCOC4)cc3)c2)[C@H](O)[C@@H](O)[C@@H]1O"
  solubility thermodynamic at 60 min, µg/mL: 192
